Provenance of the data: patent US8877967B2

measuredTarget: Cathepsin K (activated recombinant human procathepsin K) (Homo sapiens (Human))
Sequence (P43235 115-329): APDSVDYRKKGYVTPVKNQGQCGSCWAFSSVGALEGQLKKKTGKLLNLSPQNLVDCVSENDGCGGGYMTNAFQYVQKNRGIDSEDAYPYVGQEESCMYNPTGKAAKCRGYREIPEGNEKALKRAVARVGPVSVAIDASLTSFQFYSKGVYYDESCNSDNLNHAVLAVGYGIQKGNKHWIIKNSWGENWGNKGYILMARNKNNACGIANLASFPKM
method: Cathepsin K inhibition, fluorometric Z-F-R-AMC assay
conditionSet: 1.5 nM cathepsin K, 50 μM Z-F-R-AMC, pH 5.5, 5 min preincubation, 25° C.
Description: Recombinant human procathepsin K was obtained from Enzo Life Sciences. Activation of the proenzyme was performed in 32.5 mM sodium acetate pH 3.5, EDTA 1 mM, NaCl 500 mM, human procathepsin K 5.5 μM, at room temperature. […] The reaction was monitored fluorometrically for 5 minutes at 25° C. using black 96-well Corning 3686 assay microplates with a Thermo Fluoroskan Ascent FL microplate reader at excitation and emission filter wavelengths of 355 nm and 460 nm, respectively. […]
readoutName: pIC50
On this scale, pIC50 is minus log10 of a concentration expressed in M (mol/L).

Below, 3 compounds whose answers are already recorded.
compound	readoutName	obsValue
COc1ccc(C(=NNC(N)=S)c2cccc(C(=NNC(N)=S)c3ccc(OC)cc3)c2)cc1 [Compound 33]	pIC50	5.68
NC(=S)NN=C(c1ccccc1)c1cccc(C(=O)c2ccccc2)c1 [Compound 3, 3-benzoyl benzophenone thiosemicarbazone]	pIC50	7.76
NC(=S)NN=C(c1ccc(F)cc1)c1cccc(C(=O)c2ccc(F)cc2)c1 [Compound 13]	pIC50	5.07

Entry NC(=S)NN=C(c1ccccc1)c1cc(C(=O)c2ccccc2)cc(C(=O)c2ccccc2)c1 [Compound 25] needs its pIC50 filled in; supply it.
5.55

Entry Cc1cccc(C(=O)c2cccc(C(=NNC(N)=S)c3cccc(C)c3)c2)c1 [Compound 9] needs its pIC50 filled in; supply it.
5.99

###

measuredTarget: UniProt:P07858
pIC50: −log10 of the molar value.
readoutName: pIC50

Below, 2 molecules whose answers are already recorded.
molecule	pIC50
NC(=S)NN=C(c1ccccc1)c1cccc(C(O)c2ccccc2)c1 (stereo not drawn) [Compound 6, 3-Benzoyl benzhydrol thiosemicarbazone]	< 5.00
NC(=S)NN=C(c1ccc(Br)cc1)c1cccc(C(=O)c2ccc(Br)cc2)c1	< 5.00

Query molecule follows.
Write down measured pIC50 (UniProt:P07858) for this molecule. "COc1ccc(C(=NNC(N)=S)c2cccc(C(=NNC(N)=S)c3ccc(OC)cc3)c2)cc1"
< 5.00
